# ΔSPF annotations
Assay: SPF in vitro / UVA PF from UV transmittance through thin film on PMMA plates
Procedure: For determining the SPF in vitro value, the protection performance of compounds according to certain embodiments of the present technology, against erythemally-effective UV radiation, largely confined to the UVB (290-320 nm) and short-wavelength UVA (320-340) region, was calculated from the measured in vitro transmittance. The in vitro UVA PF, the UVA protection (320-400 nm), was calculated from the measured in vitro transmittance after irradiation. […]
Measurement Type: ΔSPF

- Compound: "CCOC(=O)C1CSC2=C(CC(C)(C)C/C2=N\\c2ccc(/N=N/c3ccccc3)cc2)N1 (centres unmarked) [Formula 15]"
  Value Measured: 8
- Compound: "COC(=O)C1CSC2=C(CC(C)(C)C/C2=N\\c2ccc(OC)cc2)N1 (centres unmarked) [Formula 43]"
  Value Measured: 1
- Compound: "CCOC(=O)C1CSC2=C(CC(C)(C)C/C2=N\\c2ccc(-c3ccccc3)cc2)N1 (centres unmarked) [Formula 19]"
  Value Measured: 7
- Compound: "COc1ccc(NC2C=C(NCC(=O)O)CC(C)(C)C2)cc1 (centres unmarked) [Formula 73]"
  Value Measured: 12
- Compound: "CCOC(=O)CNC1=C/C(=N/c2ccc(/N=N/c3ccc([N+](=O)[O-])cc3)cc2)CC(C)(C)C1 [Formula 35]"
  Value Measured: 2
- Compound: "CCOC(=O)CNC1=C/C(=N/c2ccc(-c3ccccc3)cc2)CC(C)(C)C1 [Formula 31]"
  Value Measured: 13
- Compound: "CCOC(=O)CNC1=CC(Nc2ccc(OC)cc2)CC(C)(C)C1 (centres unmarked) [Formula 72]"
  Value Measured: 4
- Compound: "CCOC(=O)CNC1=C/C(=N/c2ccc(/N=N/c3ccccc3)cc2)CC(C)(C)C1 [Formula 33]"
  Value Measured: 16

---

assay: Thermal stability by Thermogravimetric Analysis (TGA); type: physicochemical; conditions: 190 (° C.)
Measurement Type: Residual weight % at different temperatures (w %)

- Compound: "CCOC(=O)CNC1=C/C(=N/c2ccc(N3CCOCC3)cc2)CC(C)(C)C1"
  Value Measured: 98.8
- Compound: "CCOC(=O)CNC1=C/C(=N/c2ccc(OC(F)(F)F)cc2)CC(C)(C)C1"
  Value Measured: 98.6
- Compound: "CCOC(=O)C1CSC2=C(CC(C)(C)C/C2=N\\c2ccc(Oc3ccccc3)cc2)N1 (stereo not drawn)"
  Value Measured: 98.2
- Compound: "CCOC(=O)CNC1=C/C(=N/c2ccc(C(C)=O)cc2)CC(C)(C)C1"
  Value Measured: 96.1
- Compound: "CCCCCCCCOc1ccc(/N=C2/C=C(NC(Cc3ccccc3)C(=O)OC)CC(C)(C)C2)cc1 (stereo not drawn)"
  Value Measured: 95.2
- Compound: "CCOC(=O)CNC1=C/C(=N/c2ccc(N(C)C)cc2)CC(C)(C)C1"
  Value Measured: 92.4
- Compound: "CCOC(=O)CNC1=C/C(=N/c2ccc(NC(=O)OC(C)(C)C)cc2)CC(C)(C)C1"
  Value Measured: 84.0
- Compound: "CCOC(=O)CNC1=C/C(=N/c2ccccc2)CC(C)(C)C1"
  Value Measured: 99.1
- Compound: "C#Cc1ccc(/N=C2\\CC(C)(C)CC3=C2SCC(C(=O)OCC)N3)cc1 (stereo not drawn)"
  Value Measured: 97.3
- Compound: "CCOC(=O)CNC1=C/C(=N/c2ccc(Nc3ccccc3)cc2)CC(C)(C)C1"
  Value Measured: 99.2
- Compound: "CCOC(=O)C1CSC2=C(CC(C)(C)CC2Nc2ccccc2)N1 (stereo not drawn)"
  Value Measured: 91.2
- Compound: "CCOC(=O)C1CSC2=C(CC(C)(C)C/C2=N\\c2ccc(Cn3cncn3)cc2)N1 (stereo not drawn)"
  Value Measured: 91.7
- Compound: "CCOC(=O)CNC1=C/C(=N/c2ccc(Cn3cncn3)cc2)CC(C)(C)C1"
  Value Measured: 96.4
- Compound: "CCOC(=O)CNC1=C/C(=N/c2ccc(OCc3ccccc3)cc2)CC(C)(C)C1"
  Value Measured: 97.8
- Compound: "CCOC(=O)CNC1=C/C(=N/c2ccc(Oc3ccccc3)cc2)CC(C)(C)C1"
  Value Measured: 98.1
- Compound: "COC(=O)C(Cc1ccccc1)NC1=C/C(=N/c2ccc(F)cc2)CC(C)(C)C1 (stereo not drawn)"
  Value Measured: 92.9
- Compound: "CCOC(=O)C1CSC2=C(CC(C)(C)C/C2=N\\c2ccc(Nc3ccccc3)cc2)N1 (stereo not drawn)"
  Value Measured: 87.7
- Compound: "COC(=O)C(Cc1ccccc1)NC1=C/C(=N/c2ccc(OC)cc2)CC(C)(C)C1 (stereo not drawn)"
  Value Measured: 93.6
- Compound: "CCOC(=O)C1CSC2=C(CC(C)(C)C/C2=N\\c2ccc(N3CCOCC3)cc2)N1 (stereo not drawn)"
  Value Measured: 85.0
- Compound: "CCOC(=O)CNC1=C/C(=N/c2ccc3c(c2)OCCO3)CC(C)(C)C1"
  Value Measured: 98.9
- Compound: "CCOC(=O)C1CSC2=C(CC(C)(C)C/C2=N\\c2ccc(OCc3ccccc3)cc2)N1 (stereo not drawn)"
  Value Measured: 85.6
